# target of assay: Sodium/hydrogen exchanger 3 (Homo sapiens, UniProt P48764)
# procedure text: Inhibition of human NHE3 expressed in LAP1 cell assessed as intracellular pH recovery measured for 2 mins by CECF-AM dye based FLIPR assay
pIC50: −log10 of the molar value.
reported property: pIC50

Worked examples follow.
> print(dat)
                                   compound  readout.number
1  CC(=O)Nc1cccc(O[C@H]2c3ccccc3C[C@@H]2N2CCCC2)c1            6.36
2  Cc1nnc(C)n1-c1ccc(O[C@H]2c3cc(Cl)cc(Cl)c3C[C@@H]2N2CCCN(C)CC2)cc1            7.77
3  CC(=O)Nc1cc(O[C@H]2c3ccccc3C[C@@H]2N2CCCC2)ccn1            5.34
4  c1ccc2c(c1)C[C@H](N1CCCC1)[C@H]2Oc1cccc2cccnc12            5.02
5  Cc1nncn1-c1ccc(O[C@H]2c3ccccc3C[C@@H]2N2CCCC2)cc1            6.19

A. CS(=O)(=O)c1ccc(O[C@H]2c3cc(Cl)cc(Cl)c3C[C@@H]2N2CCCNCC2)c(Cl)c1
B. CS(=O)(=O)c1ccc(O[C@H]2c3ccccc3C[C@@H]2N2CCCC2)c(Cl)c1Cl
Q: Between the two listed entries A and B , which has its pIC50 at the higher number? Give the chosen item's label as your response.
Ans: A
(A: 8.70, B: 6.27)

---

# target of assay: Sodium/hydrogen exchanger 3 (Homo sapiens, UniProt P48764)
# Sequence (P48764 whole entry): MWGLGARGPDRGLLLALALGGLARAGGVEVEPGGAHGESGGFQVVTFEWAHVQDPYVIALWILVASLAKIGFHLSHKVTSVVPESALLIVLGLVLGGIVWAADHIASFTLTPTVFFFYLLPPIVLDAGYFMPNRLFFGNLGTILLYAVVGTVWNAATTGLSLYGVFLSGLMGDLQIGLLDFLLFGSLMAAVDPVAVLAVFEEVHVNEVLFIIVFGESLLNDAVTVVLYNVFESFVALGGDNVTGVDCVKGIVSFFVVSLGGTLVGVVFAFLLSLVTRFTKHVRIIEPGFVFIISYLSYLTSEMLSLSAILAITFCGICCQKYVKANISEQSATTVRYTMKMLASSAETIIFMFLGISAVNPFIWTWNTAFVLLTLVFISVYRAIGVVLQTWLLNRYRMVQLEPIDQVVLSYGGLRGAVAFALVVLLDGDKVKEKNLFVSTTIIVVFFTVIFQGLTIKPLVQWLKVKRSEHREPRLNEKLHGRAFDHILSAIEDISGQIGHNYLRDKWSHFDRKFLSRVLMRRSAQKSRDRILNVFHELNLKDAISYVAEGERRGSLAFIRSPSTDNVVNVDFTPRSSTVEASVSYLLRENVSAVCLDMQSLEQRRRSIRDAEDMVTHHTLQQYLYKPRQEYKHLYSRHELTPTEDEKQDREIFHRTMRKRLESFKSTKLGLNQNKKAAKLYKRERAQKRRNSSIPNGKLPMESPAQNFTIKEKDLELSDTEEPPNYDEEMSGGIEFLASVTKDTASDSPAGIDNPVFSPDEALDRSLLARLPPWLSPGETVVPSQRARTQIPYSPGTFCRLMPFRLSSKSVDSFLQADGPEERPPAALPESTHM
# procedure text: Inhibition of human NHE3 expressed in LAP1 cell assessed as intracellular pH recovery measured for 2 mins by CECF-AM dye based FLIPR assay
reported property: IC50 (nM)

> print(dat)
                                   molecule  readout.number
1  Cc1nnc(C)n1-c1ccc(O[C@H]2c3cc(Cl)ccc3C[C@@H]2N2CC[C@@H](O)C2)c(Cl)c1              90
2  CS(=O)(=O)c1ccc(O[C@H]2c3cc(Cl)cc(Cl)c3C[C@@H]2N2CCC[C@@H](NCCF)C2)cc1              56
3  CS(=O)(=O)c1ccc(O[C@H]2c3cc(Cl)cc(Cl)c3C[C@@H]2N2CCC[C@@H](N)C2)cc1               4
4  Cc1nnc(C)n1-c1ccc(O[C@H]2c3cc(Cl)cc(Cl)c3C[C@@H]2N2CC[C@@H](O)C2)c(F)c1              34
5  CS(=O)(=O)c1ccc(O[C@H]2c3cc(Cl)cc(Cl)c3C[C@@H]2N2CCC[C@@H](NCCO)C2)cc1               4

I. Cc1noc(C)c1-c1ccc(O[C@H]2c3ccccc3C[C@@H]2N2CCCC2)cc1
II. CS(=O)(=O)c1ccc(O[C@H]2c3cc(Cl)cc(Cl)c3C[C@@H]2N2CCCNCC2)cc1
III. CS(=O)(=O)c1ccc(O[C@H]2c3c(Cl)cc(Cl)cc3C[C@@H]2N2CCNCC2)cc1
IV. CS(=O)(=O)c1ccc(O[C@H]2c3cc(Cl)c(Cl)cc3C[C@@H]2N2CCCNCC2)cc1 (racemic)
V. CN(C)CCN(C)[C@H]1Cc2c(Cl)cc(Cl)cc2[C@@H]1Oc1ccc(S(C)(=O)=O)cc1
Q: Output the entries ranked by IC50 from maximum down to minimum. Form entry: ranked labels (order as requested).
Ans: IV, I, III, V, II

a. NC(=O)Nc1cccc(O[C@H]2c3ccccc3C[C@@H]2N2CCC[C@@H](N)C2)c1
b. N[C@@H]1CCCN([C@H]2Cc3ccccc3[C@@H]2Oc2ccc(S(N)(=O)=O)c(Cl)c2Cl)C1
Q: # return whichever of a and b has the smaller IC50 Give the chosen item's label as your response.
Ans: a
(a: 330 nM, b: 650 nM)

A. NS(=O)(=O)c1ccc(O[C@H]2c3ccccc3C[C@@H]2N2CCCC2)c(Cl)c1Cl
B. CS(=O)(=O)c1ccc(O[C@H]2c3cc(F)ccc3C[C@@H]2N2CCNCC2)cc1 (racemic)
Q: Between the two listed entries A and B , which has its IC50 at the higher number? Give the chosen item's label as your response.
Ans: B

1. CN1C[C@@H]2CN([C@H]3Cc4c(Cl)cc(Cl)cc4[C@@H]3Oc3ccc(S(C)(=O)=O)cc3)C[C@@H]2C1
2. CS(=O)(=O)c1ccc(O[C@H]2c3cc(Cl)ccc3C[C@@H]2N2CCNCC2)cc1 (racemic)
Q: # return whichever of 1 and 2 has the smaller IC50 Give the chosen item's label as your response.
Ans: 1
(1: 241 nM, 2: 540 nM)
